# assay notes: qHTS assay to identify small molecule agonists of the estrogen related receptor signaling pathway with the pleiotropic PPARgamma coactivator (PGC) from Tox21 10K library (AID 1224842); further: nearly all actives have a fitted effect of over 15% in size
# condition set: PGC/ERR reporter cell line, luciferase ONE-Glo, 18 h; series mostly up to 92.4 µM
Results filed as inconclusive are left out. Active and inactive are the calls of the source. The call rests on the fitted dose curve; in most records, active means well fitted activation curve with a large enough effect in the repeat runs; inconclusive means weak or mixed curves, or effect the other way; inactive means no such curve, though single readings can be large or run the other way.
Parameter call: string, one of active, inactive

Answered cases to consult:
compound: CC(C)(C)CC(=O)OCC(=O)[C@@]1(O)CC[C@H]2[C@@H]3CCC4=CC(=O)C=C[C@]4(C)[C@H]3[C@@H](O)C[C@@]21C
assigned label: inactive
//
compound: NCCNCCO
assigned label: inactive
//
compound: CCCCCCC(C)(C)C(=O)O
assigned label: inactive
//
compound: O=C1c2ccccc2C(=O)C1(O)O
assigned label: inactive
//
compound: Cc1cccc(O)c1N
assigned label: inactive
//
compound: CC(C)Nc1cccnc1N1CCN(C(=O)c2cc3cc(NS(C)(=O)=O)ccc3[nH]2)CC1
assigned label: inactive
//
compound: CC(=O)[C@H]1[C@H](C#N)C[C@H]2[C@@H]3CC=C4C[C@@H](O)CC[C@]4(C)[C@H]3CC[C@@]21C
assigned label: inactive
//
compound: NC(=O)c1ccncc1
assigned label: inactive
//
compound: COc1ncnc(NS(=O)(=O)c2ccc(N)cc2)c1OC
assigned label: inactive
//
compound: C[C@H]1c2cccc(O)c2C(O)=C2C(=O)[C@]3(O)C(O)=C(C(N)=O)C(=O)[C@@H](N(C)C)[C@@H]3[C@@H](O)[C@@H]21
assigned label: inactive

Lab log entry: CCOc1cccc(-n2cc(C(=O)N3CCN(c4cc(C(=O)O)c5ccccc5c4)CC3)nc2-c2ccc(C)cc2)c1 — outcome as called in the assay?
inactive

Outcome logged for CN1C[C@H](C(=O)N[C@]2(C)O[C@@]3(O)[C@@H]4CCCN4C(=O)[C@H](Cc4ccccc4)N3C2=O)C[C@@H]2c3cccc4[nH]cc(c34)C[C@H]21 in this assay:
inactive

What did this assay record as the result for Cc1c(C)c2c(c(C)c1OC(=O)CCC(=O)OCCO)CC[C@@](C)(CCC[C@H](C)CCC[C@H](C)CCCC(C)C)O2 ?
inactive

What classification did O=Cc1c2ccccc2c(Cl)c2ccccc12 end up with in this test?
inactive

Identify the outcome logged in this assay for the compound shown: Cc1ccc2c(Br)cc(Br)c(O)c2n1
inactive

What outcome does the record of this test show for CCC(C)(C)OC ?
inactive

In this assay, the call recorded for COC(=O)c1nc(Cl)c(Cl)nc1N was what?
inactive

Test call for this compound, please: c1csc(SSc2cccs2)c1
inactive

Every entry's value here was drawn from PubChem BioAssay (Tox21).
